Reported glycan array binding signal (z-score) by item:
- Target: Man(a1-2)Man(a1-2)Man(a1-3)Man
- Protocol notes: glycan array binding signal (z-score within array); higher = stronger binding
- Condition description: glycan notation: IUPAC condensed, linker removed
Only a selection was taken, and the strongest signals are over-represented in it overall.

Binder	glycan array binding signal (z-score)
Banana lectin (Musa acuminata) (protein) MNGAIKVGAWGGNGGSAFDMGPAYRIISVKIFSGDVVDAVDVTFTYYGKTETRHFGGSGGTPHEIVLQEGEYLVGMKGEFGNYHGVVVVGKLGFSTNKKSYGPFGNTGGTPFSLPIAAGKISGFFGRGGDFIDAIGVYLEP	3.39
Flo5 (Saccharomyces cerevisiae), P38894 (protein) MGSSHHHHHHSSGLVPRGSHMSGATEACLPAGQRKSGMNINFYQYSLKDSSTYSNAAYMAYGYASKTKLGSVGGQTDISIDYNIPCVSSSGTFPCPQEDSYGNWGCKGMGACSNSQGIAYWSTDLFGFYTTPTNVTLEMTGYFLPPQTGSYTFSFATVDDSAILSVGGSIAFECCAQEQPPITSTNFTINGIKPWDGSLPDNITGTVYMYAGYYYPLKVVYSNAVSWGTLPISVELPDGTTVSDNFEGYVYSFDDDLSQSNCTIPDPSIH	6.07
